Origin of values: PubChem BioAssay (NCATS)

Assay: Quantitative High-Throughput drug screen in 47 multiple myeloma cell lines against the NCATS MIPE library collection: H1112_PLB cell viability assay (AID 1918967; further: nearly all actives have a fitted effect of over 30% in size)
Settings: H1112 myeloma cells viability, ATP luminescence, 48 h; series mostly up to 45.8 µM
Inconclusive results are not listed. The source made the active and inactive calls. The call rests on the fitted dose curve; in most records, active means well fitted cell-killing curve with a large enough effect; inconclusive means small, poorly fitted or top-dose-only effect, or effect the other way; inactive means no such curve, though single readings can be large or run the other way.
Respond only with the outcome that fits, drawn from True for active, False for inactive

# input Name the outcome recorded for Clc1ccc(COC(Cn2ccnc2)c2ccc(Cl)cc2Cl)c(Cl)c1 (centres undefined) in the assay.
# output True

# input Name the outcome recorded for CCC[C@H](Nc1nc(-c2ccc(NC(=O)NCC)c(OC)c2)ncc1C)c1cccnc1 in the assay.
# output True

# input Name the outcome recorded for COc1c(C)c2c(c(O)c1CC=C(C)CCC(=O)O)C(=O)OC2 in the assay.
# output True

# input Name the outcome recorded for CCc1cccc(CC)c1NC(=O)N1Cc2[nH]nc(NC(=O)c3ccc(N4CCN(C)CC4)cc3)c2C1 in the assay.
# output True

# input Name the outcome recorded for CCOC(=O)N1CCN([N+]([O-])=NOc2cc(ON=[N+]([O-])N3CCN(C(=O)OCC)CC3)c([N+](=O)[O-])cc2[N+](=O)[O-])CC1 in the assay.
# output True

# input Name the outcome recorded for c1ccc(-c2oc3ncnc(NC[C@@H]4CCCO4)c3c2-c2ccccc2)cc1 in the assay.
# output False

# input Name the outcome recorded for Cc1[nH]c(C=C2C(=O)Nc3ccc(S(=O)(=O)N(C)c4cccc(Cl)c4)cc32)c(C)c1C(=O)N1CCN(C)CC1 in the assay.
# output True

# input Name the outcome recorded for COc1ccc(-c2ccc3ncc4c(c3c2)n(-c2ccc(N3CCNCC3)c(C(F)(F)F)c2)c(=O)n4C)cn1 in the assay.
# output True

# input Name the outcome recorded for CC1C(=O)OC2C(O)C34C5CC(C(C)(C)C)C36C(OC(=O)C6O)OC4(C(=O)O5)C12O (centres undefined) in the assay.
# output False

====

Exercise: state measured parasite growth, % of control (lower = inhibition) for each of the compounds provided.
Assay: qHTS profiling of the MIPE4 collection as inhibitors of Plasmodium falciparum (DD2) proliferation (Rep 2) (AID 743346)
Conditions: P. falciparum Dd2 in erythrocytes, SYBR Green DNA, 72 h; at 28.5 µM (top of the series) unless noted
Give the number; % is assumed, so skip it.

For this compound ( COc1ccc2c(c1)c(C1=C(c3c[nH]c4ccccc34)C(=O)NC1=O)cn2CCCN(C)C ), measured parasite growth, % of control (lower = inhibition) is 12.5

For this compound ( CN1CCN(c2cccc(Nc3nc4c(-c5ccc(S(C)(=O)=O)cc5)cccn4n3)c2)CC1 ), measured parasite growth, % of control (lower = inhibition) is 11.4

For this compound ( CC[C@]1(O)C[C@H]2CN(CCC3=c4ccccc4=N[C]3[C@@](C(=O)OC)(c3cc4c(cc3OC)N(C)[C@H]3[C@@](O)(C(N)=O)[C@H](O)[C@]5(CC)C=CCN6CC[C@]43[C@@H]65)C2)C1 ), measured parasite growth, % of control (lower = inhibition) is 35

For this compound ( Cc1cc(CS(=O)(=O)c2ccccc2)cc(OCc2ccc(CN3CCC[C@H]3CO)cc2)c1 ), measured parasite growth, % of control (lower = inhibition) is 18.8

For this compound ( CC[C@H](NC(=O)[C@H](C)NC)C(=O)N1C[C@@H](O)C[C@H]1Cc1c(-c2[nH]c3cc(F)ccc3c2C[C@H]2C[C@H](O)CN2C(=O)[C@H](CC)NC(=O)[C@H](C)NC)[nH]c2cc(F)ccc12 ), measured parasite growth, % of control (lower = inhibition) is 6.15

For this compound ( FC(F)(F)c1ccc(C=Cc2nc(COc3ccc(CCCCn4ccnn4)cc3)co2)cc1 ), measured parasite growth, % of control (lower = inhibition) is 62.6

For this compound ( CC(=O)Nc1cccc(-n2c(=O)n(C3CC3)c(=O)c3c(Nc4ccc(I)cc4F)n(C)c(=O)c(C)c32)c1 ), measured parasite growth, % of control (lower = inhibition) is 9.44

For this compound ( CCC(=C(CC)c1ccc(O)cc1)c1ccc(O)cc1 ), measured parasite growth, % of control (lower = inhibition) is 84.8

For this compound ( O=C(Nc1ccccc1)Nc1ccc(-c2ccc(C(=O)[C@H]3CCC[C@H]3C(=O)O)cc2)cc1 ), measured parasite growth, % of control (lower = inhibition) is 32

For this compound ( Cc1ccc(C2=Nc3ccc(Cl)cc3OC2)cc1 ), measured parasite growth, % of control (lower = inhibition) is 26.5

For this compound ( O=C(O)CCC=CCC[C@@H]1[C@H](N2CCCCC2)[C@@H](O)C[C@@H]1OCc1ccc(-c2ccccc2)cc1 ), measured parasite growth, % of control (lower = inhibition) is 62.3

For this compound ( N#CC1(c2cccc(C(=O)Nc3cc(Oc4ccc5nc(NC(=O)C6CC6)sc5n4)ccc3F)c2Cl)CC1 ), measured parasite growth, % of control (lower = inhibition) is 30.3

For this compound ( CC(C)Oc1cc(Nc2nc(N[C@@H](C)c3ccc(F)cn3)ncc2Cl)[nH]n1 ), measured parasite growth, % of control (lower = inhibition) is 23.2

For this compound ( CNC(=O)c1cc(Oc2ccc(NC(=O)Nc3ccc(Cl)c(C(F)(F)F)c3)c(F)c2)ccn1 ), measured parasite growth, % of control (lower = inhibition) is 11.8

For this compound ( O=C1C(CCC(O)c2ccc(F)cc2)C(c2ccc(O)cc2)N1c1ccc(F)cc1 (stereo not drawn) ), measured parasite growth, % of control (lower = inhibition) is 36.6

For this compound ( CC[C@H](C)C(=O)O[C@H]1C[C@H](O)C=C2C=C[C@H](C)[C@H](CC[C@@H](O)C[C@@H](O)CC(=O)O)[C@H]21 ), measured parasite growth, % of control (lower = inhibition) is 162

For this compound ( CC(=O)OCC(=O)[C@@]1(O)CC[C@H]2[C@@H]3CCC4=CC(=O)C=C[C@]4(C)[C@@H]3[C@@H](O)C[C@@]21C ), measured parasite growth, % of control (lower = inhibition) is 81.3

For this compound ( O=C(c1ccc(C=Cc2n[nH]c3ccccc23)cc1)N1CCNCC1 ), measured parasite growth, % of control (lower = inhibition) is 22.9

For this compound ( Cc1cnc(-c2cc(N3CCN(C(=O)CCS(C)(=O)=O)CC3)ncc2Cl)c(C)c1 ), measured parasite growth, % of control (lower = inhibition) is 110

For this compound ( CCCCC(C)(C)[C@H](O)C=C[C@H]1[C@H](O)CC(=O)[C@H]1CC=CCCCC(=O)O ), measured parasite growth, % of control (lower = inhibition) is 39.2

For this compound ( O=C(CC12CC3CC(CC(C3)C1)C2)Nc1cccc2nc(NCCNCCO)ccc12 ), measured parasite growth, % of control (lower = inhibition) is 15.5

For this compound ( CO[C@H]1/C=C\O[C@@]2(C)Oc3c(C)c(O)c4c(O)c(c(C=NN5CCN(C6CCCC6)CC5)c(O)c4c3C2=O)NC(=O)C(C)=CC=C[C@H](C)[C@H](O)[C@@H](C)[C@@H](O)[C@@H](C)[C@H](OC(C)=O)[C@H]1C ), measured parasite growth, % of control (lower = inhibition) is 8.54

For this compound ( O=C1C(c2c(O)[nH]c3ccccc23)=Nc2ccccc21 ), measured parasite growth, % of control (lower = inhibition) is 73.7

For this compound ( CN1CCN2c3ncccc3Cc3ccccc3C2C1 (stereo not drawn) ), measured parasite growth, % of control (lower = inhibition) is 50.4

For this compound ( Nc1nc(Cl)nc2c1ncn2[C@@H]1O[C@H](CO)[C@@H](O)[C@H]1F ), measured parasite growth, % of control (lower = inhibition) is 63.9

For this compound ( CCOC(=O)N1c2ccc(C(F)(F)F)cc2[C@@H](N(Cc2cc(C(F)(F)F)cc(C(F)(F)F)c2)C(=O)OC)C[C@H]1CC ), measured parasite growth, % of control (lower = inhibition) is 14.4

For this compound ( CC(C)C[C@@H](C(=O)N[C@H](C(=O)OC1CCCC1)c1ccccc1)[C@H](O)C(=O)NO ), measured parasite growth, % of control (lower = inhibition) is 29

For this compound ( CO[C@H]1O[C@@H]2O[C@@]3(C)CC[C@@H]4[C@@H](C)CC[C@@H]([C@H]1C)[C@@]24OO3 ), measured parasite growth, % of control (lower = inhibition) is 9.94

For this compound ( NC(=O)c1nnn(Cc2cc(Cl)c(C(=O)c3ccc(Cl)cc3)c(Cl)c2)c1N ), measured parasite growth, % of control (lower = inhibition) is 37

For this compound ( Cn1c(=O)c(Oc2ccc(F)cc2F)cc2cnc(NC3CCOCC3)nc21 ), measured parasite growth, % of control (lower = inhibition) is 48.3

For this compound ( N#Cc1c(N(CC(=O)O)CC(=O)O)sc(C(=O)O)c1CC(=O)O ), measured parasite growth, % of control (lower = inhibition) is 139
